Data origin, for the record: BindingDB's records for doi:10.1124/jpet.302.1.359

- study system: Cannabinoid receptor 1 (Homo sapiens, UniProt P21554)
- Sequence (P21554 whole entry): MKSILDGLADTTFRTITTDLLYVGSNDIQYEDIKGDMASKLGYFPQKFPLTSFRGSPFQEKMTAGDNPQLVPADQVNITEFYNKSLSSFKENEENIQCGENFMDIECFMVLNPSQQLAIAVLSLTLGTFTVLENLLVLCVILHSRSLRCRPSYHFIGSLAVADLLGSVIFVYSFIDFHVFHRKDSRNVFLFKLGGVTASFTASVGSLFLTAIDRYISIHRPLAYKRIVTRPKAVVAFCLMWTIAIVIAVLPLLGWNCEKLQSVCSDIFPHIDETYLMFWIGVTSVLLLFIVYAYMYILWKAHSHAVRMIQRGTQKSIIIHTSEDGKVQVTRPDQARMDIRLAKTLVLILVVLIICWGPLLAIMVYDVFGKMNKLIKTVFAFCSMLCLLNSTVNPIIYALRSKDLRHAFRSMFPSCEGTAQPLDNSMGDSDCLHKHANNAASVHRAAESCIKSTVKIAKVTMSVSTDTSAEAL

compound	display unit	Ki
CCCCCCC(C)(C)c1cc(O)c2c(c1)OC(C)(C)[C@@H]1CC=C(CO)CC21 (stereo partly specified)	nM	0.41

====

- study system: Cannabinoid receptor 2 (Homo sapiens)
- Sequence (P34972 whole entry): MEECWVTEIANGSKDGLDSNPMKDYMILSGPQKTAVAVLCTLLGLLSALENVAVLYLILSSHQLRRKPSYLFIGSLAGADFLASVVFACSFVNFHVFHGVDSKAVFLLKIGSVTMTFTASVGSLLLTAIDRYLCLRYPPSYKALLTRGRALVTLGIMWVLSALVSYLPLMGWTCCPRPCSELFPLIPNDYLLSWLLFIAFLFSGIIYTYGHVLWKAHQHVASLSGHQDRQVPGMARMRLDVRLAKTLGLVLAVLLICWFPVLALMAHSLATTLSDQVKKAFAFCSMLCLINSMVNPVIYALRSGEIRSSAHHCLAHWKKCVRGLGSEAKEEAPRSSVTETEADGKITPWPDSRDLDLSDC
pKi: −log10 of the molar value.

smiles str	pKi
O=S(=O)(CCCC(F)(F)F)Oc1cccc(Oc2ccc(O)c3c2CC(CO)=C3)c1	8.22
